- Test system: biotinyl-Ile-oxazolone
- Test name: self-aminoacylation, catalytic enhancement (BIO) (fold over background); higher = more active; k-Seq, kA / k0A0; sequences stand for … in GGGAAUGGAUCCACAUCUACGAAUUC…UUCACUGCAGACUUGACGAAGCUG
Fewer inactive variants are shown than the library holds.
Criterion: self-aminoacylation meeting or surpassing 1. Met: t. Not met: f.

Use the examples below as a reference point.
seq="AAGUUUGCUAAUAGUUGCACG [Fam3.1 aminoacylation ribozyme variant]" class=t
seq="AUUAACCUUGGUCAUCGGGUG [Fam2.2 aminoacylation ribozyme variant]" class=t
seq="AUUACCCUGGUCAACAAGUGA [Fam2.1 aminoacylation ribozyme variant]" class=t
seq="AUUCACCUAGGUCAAGGGGUG [Fam2.2 aminoacylation ribozyme variant]" class=t
seq="AUUCACCUAGGUCAUCUGCUG [Fam2.2 aminoacylation ribozyme variant]" class=f

Please check the record AGGUUUGCUAAUAGGCGCAAG [Fam3.1 aminoacylation ribozyme variant] and state if its self-aminoacylation is at or above 1.
f

Please check the record AUGCACCUAGGCCAUCGGGUG [Fam2.2 aminoacylation ribozyme variant] and state if its self-aminoacylation is at or above 1.
t

----------
- System: biotinyl-Ile-oxazolone
- Test name: self-aminoacylation, catalytic enhancement (BIO) (fold over background); higher = more active; k-Seq, kA / k0A0; sequences stand for … in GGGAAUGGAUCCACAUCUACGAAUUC…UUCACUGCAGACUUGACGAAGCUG
Fewer inactive variants are shown than the library holds.
Attribute: self-aminoacylation
Format: numeric value only, no unit, no commentary.

seq="CCACACUUCAAGCUAUCGGCC [Fam1B.1 aminoacylation ribozyme variant]" assay_target=biotinyl-Ile-oxazolone quantitative_result=1.62
seq="CUACUUCAAACGAUGGGUCUG [Fam1A.1 aminoacylation ribozyme variant]" assay_target=biotinyl-Ile-oxazolone quantitative_result=0.746
seq="AUUCAGCUAGGGCAUCGGGUG [Fam2.2 aminoacylation ribozyme variant]" assay_target=biotinyl-Ile-oxazolone quantitative_result=4.72
seq="AUUCACCCAGGUCAUCUGGUG [Fam2.2 aminoacylation ribozyme variant]" assay_target=biotinyl-Ile-oxazolone quantitative_result=2.35
seq="CUACUUCAAACUAGCGGUCUG [Fam1A.1 aminoacylation ribozyme variant]" assay_target=biotinyl-Ile-oxazolone quantitative_result=0.932

# lookup: self-aminoacylation of AUUCCCCUGGUCAUCGAGUGA [Fam2.1 aminoacylation ribozyme variant]
4

# lookup: self-aminoacylation of CCACACUGCAAGCACUCGGUC [Fam1B.1 aminoacylation ribozyme variant]
1.63

# lookup: self-aminoacylation of AUAACCCUGGUCAUAGAGUGA [Fam2.1 aminoacylation ribozyme variant]
3.62

----------
Attribute: self-aminoacylation
- Test system: biotinyl-Phe-oxazolone
- Test name: self-aminoacylation, catalytic enhancement (BFO) (fold over background); higher = more active; k-Seq, kA / k0A0; sequences stand for … in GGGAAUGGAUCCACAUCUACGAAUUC…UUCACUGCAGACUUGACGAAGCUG
Fewer inactive variants are shown than the library holds.
Format: numeric value only, no unit, no commentary.

Here is how some sequences turned out for self-aminoacylation.
seq="UUUGCCCUGGUCAUCGAGUGA [Fam2.1 aminoacylation ribozyme variant]" quantitative_result=294
seq="CCACACUUGAGGCAAUCGGUC [Fam1B.1 aminoacylation ribozyme variant]" quantitative_result=1.28
seq="AUUCACCUUGCUCAUCGGGUG [Fam2.2 aminoacylation ribozyme variant]" quantitative_result=10.7
seq="CCACACUUCAAGCUAUCGGGC [Fam1B.1 aminoacylation ribozyme variant]" quantitative_result=1.57
seq="AUUACGCUGGUCAUAGAGUGA [Fam2.1 aminoacylation ribozyme variant]" quantitative_result=7.49
seq="CCACACUUCAAGCGACCGGUC [Fam1B.1 aminoacylation ribozyme variant]" quantitative_result=0.483
seq="CUUUUUCAAACAAUCGGUCUG [Fam1A.1 aminoacylation ribozyme variant]" quantitative_result=6.81
seq="AUUUCCCUGGUCAUCGAUUGA [Fam2.1 aminoacylation ribozyme variant]" quantitative_result=0.598

# lookup: self-aminoacylation of CUACUUCAAACGAUCGGUCUA [Fam1A.1 aminoacylation ribozyme variant]
0.678

# lookup: self-aminoacylation of CCACACUUCAAGCGAUCGGGC [Fam1B.1 aminoacylation ribozyme variant]
1.07

Cited source for all entries: the supplement of paper PMC9233669
